# Test system: SK-MEL-2 melanoma
# method: NCI-60 one-dose screen, 48 h (100 = growth as untreated, 0 = no growth, -100 = all killed)
# test-settings: 10 µM unless noted
# Description: Growth inhibition of the SK-MEL-2 human tumor cell line is measured as a screen for anti-cancer activity. Cells are grown in 96 well plates and exposed to the test compound for 48 hours. Compounds are tested at a single concentration, which is 10^-5 M for most compounds. The reported endpoint is percent growth (GI% or GIPRCNT), where numbers from 0 - 100% represent growth inhibition, and numbers from -100% - 0 represent cell death. For example, a value of 40 represents 60% growth inhibition. […]
The panel holds about 83,000 compounds, 20% with a hit somewhere; the sample as a whole holds those more often.
observation-type: growth (%)

molecule	result-number
C[C@]12CC[C@H](OC3OC(O)C(O)C(O)C3O)C=C1CCC1C2CC[C@]2(C)[C@@H](c3ccc(=O)oc3)CC[C@]12O (stereo partly specified)	-61.3
O=[N+]([O-])c1ccc(F)c([N+](=O)[O-])c1F	93.7
CNC(=O)Oc1cccc(N(C)C)c1	83.4
CCCCNCCc1ccccn1	87.3
C[C@]12CCC(=O)CC1CC[C@@H]1C2CC[C@@]2(C)C1CC[C@@H]2OC(=O)CC[Se][Se]CCC(=O)O[C@H]1CCC2[C@@H]3CCC4CC(=O)CC[C@]4(C)C3CC[C@@]21C (stereo partly specified)	98.4
O=C(O)c1nn(Cc2ccc(Cl)cc2)c2ccccc12	114
CCN(CC)CCOc1c(C(C)C)cccc1C(C)C	96.9
Oc1ccc(O)c2c1C1(Cl)C(Cl)=C(Cl)C2(Cl)C1(Cl)Cl	31.3
C[As](=O)(O)c1ccc(C(=O)O)cc1	99.9
CC[C@H](C)[C@H](NC(=O)Nc1ccccc1)C(=O)N(C)[C@H](C[C@@H](OC(C)=O)c1nc(C(=O)N[C@@H](Cc2ccccc2)C[C@H](C)C(=O)OC)cs1)C(C)C	-15
O=C1C=CC(=O)C2C1C1(Cl)C(Cl)=C(Cl)C2(Cl)C1(Cl)Cl (stereo unspecified)	37
CCOC(=O)/C(C#N)=C/c1ccc(N(CCCl)CCCl)cc1	99.2
CC[CH2][Pb]([CH2]CC)([CH2]CC)[O]C(=O)C(F)(F)F	-87.7
CCC(/C=C(C)/C=C/C(=O)c1c(O)c(-c2ccc(O)cc2)c[nH]c1=O)CO (stereo unspecified)	88.7
CC1(C)N=C(N)N=C(N)N1c1cccc(C(=O)Nc2cccc(S(=O)(=O)F)c2)c1	114
CCC1CN1P(=O)(OCCOC)N1CC1CC (stereo unspecified)	126
OC1(c2ccc(Cl)cc2Cl)c2ccccc2C2=NCCN21 (stereo unspecified)	98.2
CO[C@@H]1[C@H](OC(=O)NC(=O)CCl)CC[C@]2(CO2)[C@H]1[C@@]1(C)O[C@@H]1CC=C(C)C	82.3
CNc1ccc(C(=O)CC(O)CCC(C)C2OC(=O)CC(O)CC(=O)CC(O)CC(O)CC(O)CC(O)CC3(O)CC(O)C(C(=O)OC)C(CC(O[C@@H]4O[C@H](C)[C@@H](O)[C@H](N)[C@@H]4O)/C=C/C=C/C=C/C=C/C=C/C=C/C=C/C2C)O3)cc1 (stereo partly specified)	-8.57
CNC(=O)Oc1cc(C(C)C)ccc1Sc1ccc(C(C)C)cc1OC(=O)NC	72.4
CCCCCCCCCCCCOc1ccc(C(=O)Oc2ccc(CSP3(=O)OCC4OC(n5cnc6c(N)ncnc65)C(F)C4OP(=O)(O)OCC4OC(n5ccc(=O)[nH]c5=O)C(F)C4O3)cc2)cc1 (stereo unspecified)	86.6

###

# Tested on: HL-60(TB) leukemia
# method: NCI-60 one-dose screen, 48 h
# test-settings: 10 µM unless noted
About 83,000 compounds went through this panel and 20% of them were active in at least one assay; those are over-represented in the sample as a whole. Activity calls are given as the source filed them. How the source made its calls: active means growth percent below 10; inactive means the rest.
Outcomes: active, inactive

>>> print(df.to_string())
                                   compound  discrete_label
0           CS(=O)(=O)c1ccc(/C=C\C(=O)O)cc1        inactive
1            O=C1SCN(Cc2ccccc2)CN1Cc1ccccc1        inactive
2           Clc1ccc2c(c1)-c1ccccc1C1=NCCN12        inactive
3  COc1ccc(-c2[nH][nH]c(=O)c2-c2nc3ccccc3s2)cc1        inactive
4  COc1ccc(C2C(C#N)=C(N)Oc3c2sc2c(F)cccc32)cc1 (stereo not given)          active
5  C=C1C(=O)O[C@H]2[C@H]1CC/C(COC(=O)N1CCC[C@H]1C(=O)Nc1ccc(OC)c(C(N)=O)c1O)=C\CC[C@@]1(C)O[C@@H]21          active
6  Cc1ccc(C(=O)CC(=O)C(F)(F)C(F)(F)C(F)(F)F)s1        inactive
7       CCCCCCCCCCC(C)Br (stereo not given)        inactive
8                           CCCC(=O)c1cccs1        inactive
9  COc1cc(C(=O)/C=C/c2cccc(Nc3ccnc4cc(Cl)ccc34)c2)cc(OC)c1OC          active

###

# System: SNB-75 CNS
# method: NCI-60 one-dose screen, 48 h (100 = growth as untreated, 0 = no growth, -100 = all killed)
# test-settings: 10 µM unless noted
Compounds without any hit were thinned out: in the full panel of roughly 83,000, 20% have a hit.
observation-type: growth (%)

In [3]: df
Out[3]:
                                   compound  observation_type  result_number
0          NS(=O)(=O)c1nc[nH]c1[N+](=O)[O-]            growth           92.1
1                 CNC(=O)Oc1ccccc1-c1ccccc1            growth           88.3
2  O=C1NC(=O)C(Cc2ccccc2)(Cc2ccccc2)C(=O)N1            growth           89.3

Cited source: PubChem BioAssay (NCI)
